- Assay Details: Literature-based in vivo clinical clearance, AUC and bioavailability
- Assay Context: human, in vivo, oral

Smiles Input | bioavailability / %
Cc1ccc(C(=O)c2cc(O)c(O)c([N+](=O)[O-])c2)cc1 | 62

----------
- Assay Details: Plasma protein binding / plasma free fraction
- Type: in vitro ADME
- Assay Context: human
Measure Name: fraction unbound

Compound | Measure Name | Value Reported
Cc1c(C)c2c(c(C)c1O)CCC(C)(COc1ccc(CC3SC(=O)NC3=O)cc1)O2 (stereo not shown) | fraction unbound | 0.017

----------
- Assay Details: Literature-based in vivo clinical clearance, AUC and bioavailability
- Assay Context: human, in vivo, oral, 200 mg equivalent

Compound | bioavailability
N[C@@H]1[C@H]2CN(c3nc4c(cc3F)c(=O)c(C(=O)O)cn4-c3ccc(F)cc3F)C[C@@H]12 [Trovafloxacin] | > 100%
